SUBJECT_OF_TEST: T1, human TMEM106B (human, UniProt Q9NUM4 2-274)
T1 construct: Full-length, on transiently transfected HEK293 cells, or natively expressed on HeLa, U251 and A549 cells; also called huTMEM106B; huTMEM
PROTOCOL_SUMMARY: FACS HEK+huTMEM, 0.1 ug/ml;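 also: flow cytometry binding of purified mouse IgG antibodies to HEK293 cells transiently expressing TMEM106B, read as median fluorescence intensity with propidium iodide positive dead cells gated out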
ASSAY_METRIC: MFI
Write the value as a bare number.

Study these solved cases before continuing.
[[record]]
binder = "anti-TMEM106B antibody TM-15 (antibody, V domains shown, mouse IgG from hybridoma) VH: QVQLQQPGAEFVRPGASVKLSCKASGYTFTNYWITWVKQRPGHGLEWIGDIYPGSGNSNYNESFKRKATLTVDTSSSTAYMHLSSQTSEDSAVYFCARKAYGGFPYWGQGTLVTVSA VL: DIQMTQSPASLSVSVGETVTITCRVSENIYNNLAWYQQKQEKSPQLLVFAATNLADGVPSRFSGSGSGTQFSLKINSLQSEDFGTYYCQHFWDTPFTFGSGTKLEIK"
result_value = 2060

[[record]]
binder = "anti-TMEM106B antibody TM-24 (antibody, V domains shown, mouse IgG from hybridoma) VH: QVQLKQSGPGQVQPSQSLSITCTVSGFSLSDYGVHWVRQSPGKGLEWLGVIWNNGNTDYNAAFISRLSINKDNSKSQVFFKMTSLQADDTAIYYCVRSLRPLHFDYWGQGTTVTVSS VL: DIVMTQSPSSLTMSVGQKVTMNCKSSQSLLNSNNQQNYLAWYQQKPGQSPKLLVYFASIRESGVPDRFIGSGSGTDFTLTINSVQAEDLADYFCQQHYSTPFTFGSGTKLEIR"
result_value = 22000


From here, focus on the item given below.
Given anti-TMEM106B antibody TM-39 (antibody, V domains shown) VH: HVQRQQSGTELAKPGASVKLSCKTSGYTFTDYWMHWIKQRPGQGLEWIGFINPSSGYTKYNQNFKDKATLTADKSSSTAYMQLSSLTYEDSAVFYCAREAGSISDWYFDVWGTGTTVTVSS VL: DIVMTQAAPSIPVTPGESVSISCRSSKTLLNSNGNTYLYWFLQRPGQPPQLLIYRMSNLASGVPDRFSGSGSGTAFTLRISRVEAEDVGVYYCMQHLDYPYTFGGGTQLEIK , state its recorded MFI.
19200
